The reported measurements were obtained from patent US10323021B2.

For reference, IC50 measured on hERG receptor (Homo sapiens (Human), UniProt Q12809):
Express your answer in µM, writing the number without its unit.

FCCc1nccn1Cc1cn(-c2cc(F)cc(C(F)F)c2)nn1 : 30.6

QUERY: // IC50 lookup, key: "Cc1nccn1Cc1cn(-c2ccc(F)c(C(C)(F)F)c2)nn1"
RESULT: 23.1

---

target: rat NR1/NR2B receptor (Rattus norvegicus (Rat), UniProt P35439+Q00960); assay: NR2B binding assay: inhibition of specific [3H]-Ifenprodil binding to the rat NR1/NR2B receptor; conditions: 1 μM test compound; read-out: NR2B binding assay % INH @ 1 μM
Sequence (Q00960 27-1482, other chains not shown): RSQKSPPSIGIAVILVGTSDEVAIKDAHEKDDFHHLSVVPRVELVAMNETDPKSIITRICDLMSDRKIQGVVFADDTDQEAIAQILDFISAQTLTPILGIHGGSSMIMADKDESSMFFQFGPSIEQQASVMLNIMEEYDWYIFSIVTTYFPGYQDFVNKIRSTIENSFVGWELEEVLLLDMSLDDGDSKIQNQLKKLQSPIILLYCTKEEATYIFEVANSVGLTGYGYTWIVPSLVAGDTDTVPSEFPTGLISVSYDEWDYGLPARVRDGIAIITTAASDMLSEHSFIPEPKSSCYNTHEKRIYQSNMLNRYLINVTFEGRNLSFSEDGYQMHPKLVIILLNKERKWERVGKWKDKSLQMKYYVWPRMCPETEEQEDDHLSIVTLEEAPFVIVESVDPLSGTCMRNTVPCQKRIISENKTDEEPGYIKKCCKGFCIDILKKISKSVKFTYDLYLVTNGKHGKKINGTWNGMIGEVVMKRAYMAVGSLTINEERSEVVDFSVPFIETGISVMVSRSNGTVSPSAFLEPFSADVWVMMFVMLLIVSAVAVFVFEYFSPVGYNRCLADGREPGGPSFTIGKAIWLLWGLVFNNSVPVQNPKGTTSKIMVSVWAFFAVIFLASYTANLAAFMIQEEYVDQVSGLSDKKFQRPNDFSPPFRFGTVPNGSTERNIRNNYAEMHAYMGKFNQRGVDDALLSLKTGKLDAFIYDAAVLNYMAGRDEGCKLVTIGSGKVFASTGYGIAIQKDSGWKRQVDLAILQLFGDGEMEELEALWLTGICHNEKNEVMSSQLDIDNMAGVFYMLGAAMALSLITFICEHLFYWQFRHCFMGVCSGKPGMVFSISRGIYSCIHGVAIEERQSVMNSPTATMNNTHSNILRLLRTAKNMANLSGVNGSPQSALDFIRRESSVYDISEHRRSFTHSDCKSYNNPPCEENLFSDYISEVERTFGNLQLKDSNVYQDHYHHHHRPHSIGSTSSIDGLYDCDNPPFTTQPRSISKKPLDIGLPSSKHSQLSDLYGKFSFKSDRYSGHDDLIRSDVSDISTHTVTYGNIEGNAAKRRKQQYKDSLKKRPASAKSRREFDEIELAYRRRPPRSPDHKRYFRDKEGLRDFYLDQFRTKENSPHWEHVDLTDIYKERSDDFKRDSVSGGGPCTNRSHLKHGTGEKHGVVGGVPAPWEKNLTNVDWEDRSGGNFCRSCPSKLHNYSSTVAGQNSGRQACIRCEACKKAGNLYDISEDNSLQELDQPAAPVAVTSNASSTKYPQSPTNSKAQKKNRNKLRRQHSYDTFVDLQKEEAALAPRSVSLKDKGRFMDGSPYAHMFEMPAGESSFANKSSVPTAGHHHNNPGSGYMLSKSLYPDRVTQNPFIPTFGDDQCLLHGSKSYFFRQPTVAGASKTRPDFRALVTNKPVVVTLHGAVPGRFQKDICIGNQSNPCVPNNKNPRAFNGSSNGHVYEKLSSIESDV
// values below are reported inhibition at 1 µM
Express it in %; write the number only.

FC(F)(F)c1ncn(Cc2cn(-c3ccc(Cl)cc3)nn2)n1 : 19.9
Clc1ccc(-n2cc(Cn3ncnc3C3CC3)nn2)cc1 : 3.6
CC(C)c1ncnn1Cc1cn(-c2ccc(Cl)cc2)nn1 : 2.3
CC(C)c1ncn(Cc2cn(-c3ccc(Cl)cc3)nn2)n1 : 21.6
Cc1ncn(Cc2cn(-c3ccc(Cl)cc3)nn2)n1 : 6.6
CC(C)(C)c1ncn(Cc2cn(-c3ccc(Cl)cc3)nn2)n1 : 27
CC(C)(C)c1ncnn1Cc1cn(-c2ccc(Cl)cc2)nn1 : 8.2
Cc1ncnn1Cc1cn(-c2ccc(Cl)cc2)nn1 : 8.3
Cc1nc(CO)nn1Cc1cn(-c2ccccc2)nn1 : 29.6
Clc1ccc(-n2cc(Cn3cnc(C4CC4)n3)nn2)cc1 : 7.5

Could you now look at the following compound, please?
QUERY: Give the measured inhibition at 1 µM of "Cc1nc(CO)n(Cc2cn(-c3ccccc3)nn2)n1" .
RESULT: 33.8
